Test system: HCC-44 (Lung Adenocarcinoma);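 also: after 72 h of two-drug dosing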
test_description: Bliss excess, mean over the matrix (fraction); higher = more synergy
observation_type: Bliss excess
The reply should be a number, written without any unit.

>  <compound>
COc1nnc2ccc(N3CCC(c4ccc(OCCN5CCN(C)C(=O)[C@H]5C)cc4)CC3)nn12 [AZD5153] + CC1(C)CCC(CN2CCN(c3ccc(C(=O)NS(=O)(=O)c4ccc(NCC5CCOCC5)c([N+](=O)[O-])c4)c(Oc4cnc5[nH]ccc5c4)c3)CC2)=C(c2ccc(Cl)cc2)C1 [Venetoclax] (first compound max 1 µM, 7x7, partner max 1 µM)

>  <Bliss excess>
-0.0395

$$$$

Enter reported Bliss excess observed with HCC-44 (Lung Adenocarcinoma) for C[C@@H](c1ccc2nccn2c1)n1nnc2ncc(-c3cnn(C)c3)nc21 [Savolitinib] + Cc1c2c(nn1C)CSCc1cc(n(C)n1)CSc1cc(c3ccccc3c1)OCCCc1c(C(=O)O)n(C)c3c-2c(Cl)ccc13 [AZD5991] (first compound max 1 µM, 7x7, partner max 1 µM) -0.0335

Another compound: O=C(c1cc(Cc2n[nH]c(=O)c3ccccc23)ccc1F)N1CCN(C(=O)C2CC2)CC1 [Olaparib] + CC1(C)CCC(CN2CCN(c3ccc(C(=O)NS(=O)(=O)c4ccc(NCC5CCOCC5)c([N+](=O)[O-])c4)c(Oc4cnc5[nH]ccc5c4)c3)CC2)=C(c2ccc(Cl)cc2)C1 [Venetoclax] (first compound max 10 µM, 7x7, partner max 1 µM) -0.0278

Data provenance: the supplement of paper PMC11061612
